- STUDY SYSTEM: CDK4/cyclin D3 (Homo sapiens)
- Sequence (P11802 2-303 limits assumed): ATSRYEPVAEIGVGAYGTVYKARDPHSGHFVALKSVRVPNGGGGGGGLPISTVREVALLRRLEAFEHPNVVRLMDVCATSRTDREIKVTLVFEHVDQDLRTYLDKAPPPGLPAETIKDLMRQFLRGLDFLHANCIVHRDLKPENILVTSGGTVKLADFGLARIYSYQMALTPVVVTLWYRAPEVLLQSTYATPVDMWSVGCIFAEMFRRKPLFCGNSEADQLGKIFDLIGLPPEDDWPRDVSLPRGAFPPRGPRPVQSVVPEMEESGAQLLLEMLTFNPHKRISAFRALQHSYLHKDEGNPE
- Sequence (P30281 1-264 limits assumed, further chain): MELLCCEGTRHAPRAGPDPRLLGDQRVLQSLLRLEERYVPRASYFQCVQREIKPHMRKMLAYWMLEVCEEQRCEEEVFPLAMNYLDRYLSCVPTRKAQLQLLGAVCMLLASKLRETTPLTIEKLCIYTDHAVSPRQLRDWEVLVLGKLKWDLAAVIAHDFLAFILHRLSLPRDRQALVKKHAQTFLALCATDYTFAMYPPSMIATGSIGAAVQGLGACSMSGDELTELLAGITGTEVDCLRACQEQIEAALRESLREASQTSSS
- EXPERIMENT: Inhibition of CDK4/Cyclin D Retinoblastoma Kinase Activity
- APPLIED CONDITIONS: apparent Ki
pKi values for the compounds below.
Remember, pKi is on a log scale: it is -log10 of the molar concentration.

// query Look up pKi for this compound: CC(=O)Nc1cccc2c(-c3ccc4[nH]nc(-c5nc6ccccc6[nH]5)c4c3)cncc12 [Example 56]
// result 7.44

// query Try this compound too: OCCc1cccc2[nH]c(-c3n[nH]c4ccc(-c5cncc6ccccc56)cc34)nc12 [Example 30]
// result 7.96

// query Try this compound too: CS(=O)(=O)Nc1ccc2nc(-c3n[nH]c4ccc(-c5cncc6ccccc56)cc34)[nH]c2c1 [Example 70]
// result 8.74

// query Try this compound too: CC(=O)N1CCCc2c(-c3ccc4[nH]nc(-c5nc6ccccc6[nH]5)c4c3)cncc21 [Example 63]
// result 6.66

###

pIC50 values for the compounds below.
- System: HCT 116 cell line
- EXPERIMENT: Inhibition of Cell Growth (MTT tetrazolium salt assay)
- Format: cell-based
- APPLIED CONDITIONS: Homo sapiens; HCT 116, MTT, 50% inhibition of growth; read-out: HCT 116 IC50
- Protocol: Inhibition of Cell Growth: Assessment of Cytotoxicity Inhibition of cell growth was measured using the tetrazolium salt assay, which is based on the ability of viable cells to reduce 3-(4,5-dimethylthiazol-2-yl)-2,5-[2H]-diphenyltetrazolium bromide (MTT) to formazan (Mossman, Journal of Immunological Methods, vol. 65 (1983), pp. 55–58). The water-insoluble purple formazan product was then detected spectrophotometrically. The HCT 116 cell line was grown in 96-well plates. […]
Remember, pIC50 is on a log scale: it is -log10 of the molar concentration.

Some compounds with recorded pIC50:
>  <SMILES REPR>
Cc1c(O)cccc1-c1ccc2[nH]nc(-c3nc4ccccc4[nH]3)c2c1

>  <STUDY SYSTEM>
HCT 116 cell line

>  <pIC50>
5.82

$$$$
>  <SMILES REPR>
Cc1c(-c2ccncc2)cncc1-c1ccc2[nH]nc(-c3nc4ccccc4[nH]3)c2c1

>  <STUDY SYSTEM>
HCT 116 cell line

>  <pIC50>
6.70

$$$$
>  <SMILES REPR>
Cc1c(CNCC(C)C)cncc1-c1ccc2[nH]nc(-c3nc4ccccc4[nH]3)c2c1

>  <STUDY SYSTEM>
HCT 116 cell line

>  <pIC50>
6.80

$$$$

// query Look up pIC50 for this compound: `CCN(CC)Cc1cccc2[nH]c(-c3n[nH]c4ccc(-c5cncc6ccccc56)cc34)nc12`
// result 7.62

// query Try this compound too: `c1ccc2c(-c3ccc4[nH]nc(-c5nc6c([nH]5)CCCC6)c4c3)cncc2c1`
// result 6.31

// query Try this compound too: `c1ccc2c(-c3ccc4[nH]nc(-c5nc6c(CCN7CCCC7)cccc6[nH]5)c4c3)cncc2c1`
// result 6.70

// query Try this compound too: `Cc1c(O)cccc1-c1ccc2[nH]nc(/C=C/c3ccccc3)c2c1`
// result 5.92

// query Try this compound too: `C(=C\c1n[nH]c2ccc(-c3ccnc4ccccc34)cc12)/c1ccccc1`
// result 5.49
